Target: T1, TGFβ3 (R&D Systems)
T1 sequence (P10600 301-412, species assumed, looked up): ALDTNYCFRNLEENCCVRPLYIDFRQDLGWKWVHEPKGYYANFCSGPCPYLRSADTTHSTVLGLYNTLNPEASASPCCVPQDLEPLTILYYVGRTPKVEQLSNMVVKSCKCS
Experiment: cell-based or functional assay
Recorded TGFb3 IC50 (SMAD3 phosphorylation in CMVICs, AlphaLISA) values for a group of binders are listed next.
readout_label: TGFb3 IC50 (SMAD3 phosphorylation in CMVICs, AlphaLISA) (µg/mL)

[
  {
    "binder": "Felinized anti-TGFβ1,2,3 antibody VH3.8 - VL7 (antibody, V domains shown) VH: QVQLVQSGAEVKKPGSSVKVSCKASGYTFSSNVISWVRQAPGKGLQWVAGVIPIVDIANYAQRFKGRFTISIDNSKNTLYLQMNSLKTEDTATYYCASTLGLVLDAMDYWGQGTLVTVSS VL: DIVLTQPPSLSVNLGQTARITCRASQSLGSSYLAWYQQKPGQAPKLVTYGASSRAPGIPDRFSGTNSGITATLTISGARAEDEADYYCQQYADSPITFGQGTKLEIKR",
    "unit_descriptor": "µg/mL",
    "measurement": 0.204
  },
  {
    "binder": "Felinized anti-TGFβ1,2,3 antibody VH3.2 - VL8 (antibody, V domains shown) VH: DVQLVESGGDLVKPGGSLRLTCVASGYTFSSNVMHWVRQAPGKGLQWVAYVIPIVDIAYYADSVKGRFTISIDNSKNTLYLQMNSLKTEDTATYYCARTLGLVLDAMDYWGQGTLVTVSS VL: DIVMTQSPGSLAGSPGQQVTMNCRASQSLGSSYLAWYQQKPGQHPELLIYGASSRAPGVPDRFSGSGSGTDFTLTISNLQAEDVANYYCQQYADSPITFGQGTKLEIKR",
    "unit_descriptor": "µg/mL",
    "measurement": 0.008
  },
  {
    "binder": "Caninized anti-TGFβ1,2,3 antibody VH3.6 - VL2 (antibody, V domains shown) VH: EVQLVQSAAEVKKPGASVKVSCKTSGYIFISNVISWVRQAPGQGLEWMGGVIPIVDIANYAQRFKGRVTITADESTSTTYMELSSLRSEDTAVYYCASTLGLVLDAMDYWGQGTLVTVSS VL: ETVLTQSPGTLSLSPGERATLSCRASQSLGSSYLAWYQQKPGQAPRLLIYGASSRAPGVPARFSGSGSGTDFTLTISSLEPEDFAVYYCQQYADSPITFGQGTKLEIKR",
    "unit_descriptor": "µg/mL",
    "measurement": 0.203
  }
]
